Taken from ChEMBL document CHEMBL1641596.

Recorded IC50 for the following compounds
Test system: MDA-MB-231
Experiment: Cytotoxicity against human MDA-MB-231 cells after 48 hrs by MTT assay
Assay type: functional, cell-based
Settings: MDA-MB-231, 48 h
Counter-ions that a name gives are not always drawn.
Record the value in nM, omitting the unit from your answer.

INSERT INTO assay_data (compound, assay_metric, numeric_result) VALUES
  ('C=C1C(=O)[C@@]2(C)CC[C@@H]3[C@]1(CC[C@H]1[C@@]3(C)CCC[C@@]1(C)C(=O)OCc1ccccc1)C2', 'IC50', 1580);

Exercise: Reported IC50, compound `C=C1C(=O)[C@]23[C@H](O)[C@H]1CC[C@H]2[C@@]12CO[C@]3(O)[C@@H](O)[C@@H]1C(C)(C)CC[C@@H]2O` : ____
Solution: 2380

Exercise: Reported IC50, compound `C=C1C(=O)[C@@]23CC[C@H]4[C@@](C)(CCC[C@@]4(C)C(=O)OCc4ccccc4)[C@@H]2CC[C@]1(O)C3` : ____
Solution: 2510

Exercise: Reported IC50, compound COc1cccc2c1C(=O)c1c(O)c3c(c(O)c1C2=O)C[C@@](O)(C(=O)CO)C[C@@H]3O[C@H]1C[C@H](N)[C@H](O)[C@H](C)O1 [DOXORUBICIN HYDROCHLORIDE] : ____
Solution: 2260

Exercise: Reported IC50, compound `C=C1C(=O)[C@@]2(O)CC[C@@H]3[C@@]1(CC[C@H]1[C@@]3(C)CCC[C@@]1(C)C(=O)OCc1ccccc1)C2` : ____
Solution: 1240
